Values from PubChem BioAssay (NCI)

Task for the reader: assign each of the following compounds its reported GI50.
System: RPMI-8226 leukemia
Test: NCI tumour cell line growth inhibition, 48 h

Record O=C(CN1CCN(CCCOc2c(-c3ccccc3)oc3ccccc3c2=O)CC1)Nc1ccc(Cl)cc1C(=O)c1ccccc1Cl , field GI50: 2590 nM

Record C/C(=N\Nc1cc(C)c2cc(C)ccc2n1)c1ccccn1 , field GI50: 79 nM

Record N#Cc1nc2c(S(=O)(=O)c3ccccc3)c(N)n(Cc3cccnc3)c2nc1C#N , field GI50: > 100000 nM

Now look at this one.
Record C=C1C(=O)O[C@H]2[C@H]1CC/C(Cn1cc(-c3cc(C(F)(F)F)cc(C(F)(F)F)c3)nn1)=C\CC[C@@]1(C)O[C@@H]21 , field GI50: 221 nM

###

Test system: SK-MEL-5 melanoma
Experiment: NCI tumour cell line growth inhibition, 48 h
Label met when TGI is at or above 30 µM; otherwise label not met.

Check out these entries, answers already filled in.
Decide: TGI of Cn1c(/C=C(\C#N)c2ccccc2)nc2c(N3CCOCC3)nc(Cl)nc21 >= 30 µM?
not met

Decide: TGI of O=C(CNc1ccc2c(c1)C(=O)c1ccccc1C2=O)Nc1ccc2c(c1)C(=O)c1ccccc1C2=O >= 30 µM?
not met

Decide: TGI of COC(=O)c1ccccc1CC1Cc2ccc3c(c2C1)CCC3 (stereo not given) >= 30 µM?
met

Decide: TGI of Nc1nc(N)c2c(n1)NC(=O)c1c(c3ccccc3n1Cc1ccc(Cl)cc1)C2 >= 30 µM?
not met

Decide: TGI of COc1cc(C2c3cc(O)c(OC)cc3C3OCC2C3CO)ccc1O (stereo not given) >= 30 µM?
met

Further cases:
Decide: TGI of CCCCCC/C=C1\CCC(CN2CCCC2)C1=O (stereo not given) >= 30 µM?
met

Decide: TGI of O=c1cc2ccccc2nn1Cc1cccc(Cl)c1 >= 30 µM?
met

Decide: TGI of O=C1/C(=C/c2ccccc2)CN(C(=O)c2cccnc2)C/C1=C\c1ccccc1 >= 30 µM?
not met

Decide: TGI of O=c1[nH]/c(=C/c2ccc(OCc3ccccc3)cn2)c(=O)[nH]/c1=C/c1ccc([N+](=O)[O-])cc1 >= 30 µM?
met

###

System: UACC-62 melanoma
Assay: NCI tumour cell line growth inhibition, 48 h
Task for the reader: assign each of the following molecules its reported GI50.

Consider the reported GI50 for these molecules:
Record CCOc1ccc(-c2nonc2NC(=O)c2cccc(C)c2)cc1OCC , field GI50: > 100 µM

Record COc1ccccc1CCN=C1NC(=O)/C(=C/c2ccc3ncccc3c2)S1 , field GI50: 6.1 µM

Record Cc1ccccc1N=Nc1ccc(NC(=O)c2ccnn2C)c(C)c1 , field GI50: 97.2 µM

Record O=C(CNc1ccc2c(c1)C(=O)c1ccccc1C2=O)Nc1ccc2c(c1)C(=O)c1ccccc1C2=O , field GI50: 0.631 µM

Record O=C1C(Cl)=C(Nc2cccc(Cl)c2)C(=O)N1Cc1ccccc1Cl , field GI50: 3.05 µM

Record COc1ccc(/C=C/C(=O)c2ccc(SC)cc2)cc1OC , field GI50: 12.7 µM

Record COc1cc2cc(Oc3ccc(NC(=O)Nc4cccc(C(F)(F)F)c4)cc3)c(C)nc2cc1OC , field GI50: 1.84 µM

Record CCC/C(=N/N=C(N)N)c1ccc(NC(=O)c2cc3cc(OC)ccc3[nH]2)cc1 , field GI50: 14.7 µM

Kindly give each listed record's GI50.
1. N#Cc1nc2c(S(=O)(=O)c3ccccc3)c(N)n(Cc3cccnc3)c2nc1C#N
2. O=C(CN1CCN(CCCOc2c(-c3ccccc3)oc3ccccc3c2=O)CC1)Nc1ccc(Cl)cc1C(=O)c1ccccc1Cl

1: 20.7 µM; 2: 12.3 µM

###

Task for the reader: assign each of the following molecules its reported TGI.
Test system: U251 CNS
Test: NCI tumour cell line growth inhibition, 48 h

Consider the reported TGI for these molecules:
Record O=C1SS(=O)c2ccccc21 (configuration not stated) , field TGI: > 100 µM

Record CCC/C(=N/NC(=O)C(N)=O)C(CC)C(=O)CCC(=O)N(Cc1ccccc1)Cc1ccccc1 (configuration not stated) , field TGI: > 100 µM

Record O=C(CO)CC(=O)C(=O)Nc1ccccc1 , field TGI: > 100 µM

Record CC(C)(C)c1cc(C2NCCO2)cc(C(C)(C)C)c1O (configuration not stated) , field TGI: > 100 µM

Record CC1=C2C[C@H]3[C@@H](CC[C@@H]4CC(NS(C)(=O)=O)CC[C@@]43C)[C@@H]2CC[C@@]2(C1)O[C@@H]1C[C@H](C)CN[C@H]1[C@H]2C (some centres not stated) , field TGI: 20.8 µM

Kindly give each listed record's TGI.
1. C#CCOc1c(C(=O)OCC)c(=O)n(C)c2ccccc12
2. c1ccc(N=C(Nc2ccccc2)N2CCCCC2)cc1
3. N#CC(C(=O)/C(=N/N)C(C#N)c1ccccc1)c1ccccc1 (configuration not stated)
4. CN(C)c1ccc(/C=c2/c3ccccc3n3nc4ccccc4c23)cc1
5. CCC/C(=N/N=C(N)N)c1ccc(NC(=O)c2cc3cc(OC)ccc3[nH]2)cc1
6. BrC1=CC=C2NC=CC3=CC=NC1C32 (configuration not stated)
7. O=C1CC(O)c2c(Br)sc(Br)c21 (configuration not stated)

["> 100 µM", "> 100 µM", "> 100 µM", "> 100 µM", "25.1 µM", "> 100 µM", "16.4 µM"]

###

System: RXF 393 renal
Test: NCI tumour cell line growth inhibition, 48 h
Task for the reader: assign each of the following compounds its reported TGI.
Give bare numbers, in µM.

Consider the reported TGI for these compounds:
Record Cc1c(-c2c(-c3ccc(F)o3)sc3ncnc(O[C@H](Cc4ccccc4OCc4ccnn4CC(F)(F)F)C(=O)O)c23)ccc(OCCN2CCN(C)CC2)c1Cl , field TGI: 6.1

Record O=C1CC(O)c2c(Br)sc(Br)c21 (centres undefined) , field TGI: 5.51

Record O=C(CCc1ccccc1)ON1C(=S)NC(c2ccccc2)(c2ccccc2)C1=S , field TGI: 93

Record COc1cc(/C=C2\C[C@H]3[C@@H]4CC=C5C=C(N6CCCC6)CC[C@]5(C)[C@H]4CC[C@]3(C)C2=O)cc(OC)c1OC , field TGI: 4.04

Kindly give each listed record's TGI.
1. C/C(=N\Nc1cc(C)c2cc(C)ccc2n1)c1ccccn1
2. COc1cc(C)c(Cl)cc1C1=NN(c2ccc(S(N)(=O)=O)cc2)C(/C=C/c2ccccc2)C1 (centres undefined)
3. Oc1cc(Br)cc2cccnc12
4. CCN1CCN(c2ccc(Nc3ccnc4ccc5c(nnn5C)c34)cc2)CC1

[1.53, 3.5, 30.4, 23.4]

###

Tested on: K-562 leukemia
Test: NCI tumour cell line growth inhibition, 48 h; in the data active means GI50 below about 0.43 µM; inactive means the rest
// allowed return values: active, inactive

Check out these entries, answers already filled in.
Which outcome was assigned to CC(C)(O)CS(=O)(=O)Nc1ccc2c(c1)CCN(C(=O)COc1cccnc1)C2 in this test?
active

Which outcome was assigned to COc1cc(-c2nn(-c3cccc(NC(=O)Nc4cc(C(F)(F)F)cc(C(F)(F)F)c4)c3)cc2-c2ccncc2)ccc1Cl in this test?
active

Which outcome was assigned to C=C(CN1C(=O)[C@H]2CCCN2C(=O)c2ccccc21)c1ccc(C(=O)O)cc1 in this test?
inactive

Next:
Which outcome was assigned to CC1(C)N=C(N)N=C(N)N1c1ccc(OCCCCOc2ccc(S(=O)(=O)F)cc2)c(Cl)c1 in this test?
active

###

Test system: SR leukemia
Assay: NCI tumour cell line growth inhibition, 48 h
Task for the reader: assign each of the following compounds its reported log10 TGI.
Values below are the log10 of the recorded TGI, with µM as the unit.

Record COc1ccc(/C=C/C(=O)c2ccc(SC)cc2)cc1OC , field log10 TGI: 1.63

Kindly give each listed record's log10 TGI.
1. COc1ccc(/C=C/C(=O)/C=C/c2ccc(OC)cc2)cc1
2. COc1cc2cc(Oc3ccc(NC(=O)Nc4cccc(C(F)(F)F)c4)cc3)c(C)nc2cc1OC
3. CC(=O)O[C@H]1C(=O)[C@@]2(C)[C@H]([C@H](OC(=O)c3cccc(C(F)(F)F)c3)[C@]3(O)C[C@H](OC(=O)[C@H](O)[C@@H](NC(=O)c4ccccc4)c4ccccc4)C(C)=C1C3(C)C)[C@]1(OC(C)=O)CO[C@@H]1C[C@@H]2O
4. Oc1cc(O)c2c(-c3c(O)c(-c4ccc(O)c(O)c4)[o+]c4cc(O)cc(O)c34)c(O)c(-c3ccc(O)c(O)c3)[o+]c2c1
5. Nc1nc(Cl)c2ncn(Cc3ccc(CCl)cc3)c2n1
6. CCn1c(CN2CCN(Cc3ccccc3)CC2)nc2cc(NC(=O)c3cccs3)ccc21

[1.84, 0.52, 0.57, 1.87, 0.97, 1.59]

Kindly give each listed record's log10 TGI.
1. Cc1nc(Nc2ccccc2Cl)sc1C(=O)CC(=O)C(=O)Nc1c(Cl)cccc1Cl
2. COC(=O)c1c2c(c(C)[n+]([O-])c1C)C(=O)C=C(NCc1ccc(F)c(Cl)c1)C2=O

1.84
0.83
